These measurements were taken from the supplement of paper PMC10307832.

System: NCI-H358
assay.comment: relative viability (nuclei count vs DMSO), 5 days (fraction); higher = more cells survive
stated.conditions: first compound 0.01 µM
observation.type: relative viability
Output spec: single numeric token, no unit.

1) NC(=O)Nc1cc(-c2cccc(F)c2)sc1C(=O)N[C@H]1CCCNC1 [AZD7762] + C[C@]1(O)C[C@@H](c2nc(-c3ccc4ccc(-c5ccccc5)nc4c3)c3c(N)nccn32)C1 [Linsitinib] (partner 1 µM) | 0.695
2) NC(=O)Nc1cc(-c2cccc(F)c2)sc1C(=O)N[C@H]1CCCNC1 [AZD7762] + C[C@@H](Oc1cc(-c2cnn(C3CCNCC3)c2)cnc1N)c1c(Cl)ccc(F)c1Cl [Crizotinib] (partner 1 µM) | 0.743
3) NC(=O)Nc1cc(-c2cccc(F)c2)sc1C(=O)N[C@H]1CCCNC1 [AZD7762] + Nc1nc2[nH]cc(CCc3ccc(C(=O)N[C@@H](CCC(=O)O)C(=O)O)cc3)c2c(=O)[nH]1 [Pemetrexed] (partner 0.2 µM) | 0.23
4) NC(=O)Nc1cc(-c2cccc(F)c2)sc1C(=O)N[C@H]1CCCNC1 [AZD7762] + Cc1cc(Nc2cc(N3CCN(C)CC3)nc(Sc3ccc(NC(=O)C4CC4)cc3)n2)n[nH]1 [Tozasertib] (partner 0.1 µM) | 0.0979
5) NC(=O)Nc1cc(-c2cccc(F)c2)sc1C(=O)N[C@H]1CCCNC1 [AZD7762] + CC(=O)Nc1cccc(-n2c(=O)n(C3CC3)c(=O)c3c(Nc4ccc(I)cc4F)n(C)c(=O)c(C)c32)c1 [Trametinib] (partner 0.02 µM) | 0.136

Now for the molecule whose relative viability we want.
## Task Returns the measured relative viability for the input molecule. Input: NC(=O)Nc1cc(-c2cccc(F)c2)sc1C(=O)N[C@H]1CCCNC1 [AZD7762] + CCNC(=O)c1noc(-c2cc(C(C)C)c(O)cc2O)c1-c1ccc(CN2CCOCC2)cc1 [Luminespib] (partner 0.01 µM)
## Result 0.275

---

System: HCC-15
assay.comment: relative viability (nuclei count vs DMSO), 5 days (fraction); higher = more cells survive
stated.conditions: first compound 0.5 µM
Entries and their relative viability values follow.
Output spec: single numeric token, no unit.

1) CC1(C)CCC(c2ccc(Cl)cc2)=C(CN2CCN(c3ccc(C(=O)NS(=O)(=O)c4ccc(N[C@H](CCN5CCOCC5)CSc5ccccc5)c(S(=O)(=O)C(F)(F)F)c4)cc3)CC2)C1 [Navitoclax] + Nc1ncn([C@H]2C[C@H](O)[C@@H](CO)O2)c(=O)n1 [Decitabine] (partner 2 µM) | 0.411

Now for the molecule whose relative viability we want.
## Task Returns the measured relative viability for the input molecule. Input: CC1(C)CCC(c2ccc(Cl)cc2)=C(CN2CCN(c3ccc(C(=O)NS(=O)(=O)c4ccc(N[C@H](CCN5CCOCC5)CSc5ccccc5)c(S(=O)(=O)C(F)(F)F)c4)cc3)CC2)C1 [Navitoclax] + O=C(c1cc(Cc2n[nH]c(=O)c3ccccc23)ccc1F)N1CCN(C(=O)C2CC2)CC1 [Olaparib] (partner 8 µM)
## Result 0.778

---

Entries and their relative viability values follow.
System: NCI-H1563
assay.comment: relative viability (nuclei count vs DMSO), 5 days (fraction); higher = more cells survive
stated.conditions: first compound 0.005 µM
Output spec: single numeric token, no unit.

# annotated cases, reported relative viability shown
1) CC1(C)CCC(c2ccc(Cl)cc2)=C(CN2CCN(c3ccc(C(=O)NS(=O)(=O)c4ccc(N[C@H](CCN5CCOCC5)CSc5ccccc5)c(S(=O)(=O)C(F)(F)F)c4)cc3)CC2)C1 [Navitoclax] + CCNC(=O)c1noc(-c2cc(C(C)C)c(O)cc2O)c1-c1ccc(CN2CCOCC2)cc1 [Luminespib] (partner 0.01 µM) | 0.53
2) CC1(C)CCC(c2ccc(Cl)cc2)=C(CN2CCN(c3ccc(C(=O)NS(=O)(=O)c4ccc(N[C@H](CCN5CCOCC5)CSc5ccccc5)c(S(=O)(=O)C(F)(F)F)c4)cc3)CC2)C1 [Navitoclax] + C[C@]1(O)C[C@@H](c2nc(-c3ccc4ccc(-c5ccccc5)nc4c3)c3c(N)nccn32)C1 [Linsitinib] (partner 1 µM) | 0.99
3) CC1(C)CCC(c2ccc(Cl)cc2)=C(CN2CCN(c3ccc(C(=O)NS(=O)(=O)c4ccc(N[C@H](CCN5CCOCC5)CSc5ccccc5)c(S(=O)(=O)C(F)(F)F)c4)cc3)CC2)C1 [Navitoclax] + CS(=O)(=O)CCNCc1ccc(-c2ccc3ncnc(Nc4ccc(OCc5cccc(F)c5)c(Cl)c4)c3c2)o1 [Lapatinib] (partner 2 µM) | 1.08

## Task Returns the measured relative viability for the input compound. Input: CC1(C)CCC(c2ccc(Cl)cc2)=C(CN2CCN(c3ccc(C(=O)NS(=O)(=O)c4ccc(N[C@H](CCN5CCOCC5)CSc5ccccc5)c(S(=O)(=O)C(F)(F)F)c4)cc3)CC2)C1 [Navitoclax] + C[C@@H](Oc1cc(-c2cnn(C3CCNCC3)c2)cnc1N)c1c(Cl)ccc(F)c1Cl [Crizotinib] (partner 1 µM)
## Result 0.908
